Below, each entry is listed alongside its reported MIC.
Test system: Streptococcus pneumoniae
experiment: Antimicrobial activity against Streptococcus pneumoniae 07P390 expressing constitutive ermB incubated for 20 to 24 hrs by two-fold microbroth dilution method
Assay type: functional
Unit µg/mL implied. Number only.

Would you please look over these solved cases?
CC[C@H]1OC(=O)[C@H](C)[C@@H](OC(=O)Cc2ccccn2)[C@H](C)[C@@H](O[C@@H]2O[C@H](C)C[C@H](N(C)C)[C@H]2O)[C@](C)(OC)C[C@@H](C)/C(=N\OCCCc2ccc(NC(=O)Cc3ccccn3)nc2)[C@H](C)[C@H]2OC(=O)O[C@@]21C; 2
CC[C@H]1OC(=O)[C@H](C)[C@@H](OC(=O)Cc2ccccn2)[C@H](C)[C@@H](O[C@@H]2O[C@H](C)C[C@H](N(C)C)[C@H]2O)[C@](C)(OC)C[C@@H](C)/C(=N\OC/C=C/c2ccnc(NC(=O)Cc3ccccn3)c2)[C@H](C)[C@H]2OC(=O)O[C@@]21C; 4
CC[C@H]1OC(=O)[C@H](C)[C@@H](OC(=O)Cc2ccccn2)[C@H](C)[C@@H](O[C@@H]2O[C@H](C)C[C@H](N(C)C)[C@H]2O)[C@](C)(OC)C[C@@H](C)/C(=N\OCC#Cc2ccc(N)nc2)[C@H](C)[C@H]2OC(=O)O[C@@]21C; 2

As a next step, examine the compound that follows.
Ask: Output measured MIC for this item: CC[C@H]1OC(=O)[C@H](C)[C@@H](OC(=O)Cc2ccccn2)[C@H](C)[C@@H](O[C@@H]2O[C@H](C)C[C@H](N(C)C)[C@H]2O)[C@](C)(OC)C[C@@H](C)/C(=N\OC/C=C/c2cccnc2N)[C@H](C)[C@H]2OC(=O)O[C@@]21C
Reply: 4

---

We begin with a simple list: items and their reported MIC.
Tested on: Streptococcus pneumoniae
experiment: Antimicrobial activity against Streptococcus pneumoniae 07P390 expressing constitutive ermB incubated for 20 to 24 hrs by two-fold microbroth dilution method
Type: functional

Consider the worked cases shown below.
CC[C@H]1OC(=O)[C@H](C)[C@@H](OC(=O)Cc2ccccn2)[C@H](C)[C@@H](O[C@@H]2O[C@H](C)C[C@H](N(C)C)[C@H]2O)[C@](C)(OC)C[C@@H](C)/C(=N\OC/C=C/c2cncc(NC(=O)Cc3ccccn3)c2)[C@H](C)[C@H]2OC(=O)O[C@@]21C; 2 µg/mL
CC[C@H]1OC(=O)[C@H](C)[C@@H](O[C@H]2C[C@@](C)(OC)[C@@H](O)[C@H](C)O2)[C@H](C)[C@@H](O[C@@H]2O[C@H](C)C[C@H](N(C)C)[C@H]2O)[C@](C)(OC)C[C@@H](C)C(=O)[C@H](C)[C@@H](O)[C@]1(C)O; > 64 µg/mL
CC[C@H]1OC(=O)[C@H](C)[C@@H](OC(=O)Cc2ccccn2)[C@H](C)[C@@H](O[C@@H]2O[C@H](C)C[C@H](N(C)C)[C@H]2O)[C@](C)(OC)C[C@@H](C)/C(=N\OCC#Cc2ccc(NC(=O)Cc3ccccn3)nc2)[C@H](C)[C@H]2OC(=O)O[C@@]21C; 1 µg/mL
CC[C@H]1OC(=O)[C@H](C)[C@@H](OC(=O)Cc2ccccn2)[C@H](C)[C@@H](O[C@@H]2O[C@H](C)C[C@H](N(C)C)[C@H]2O)[C@](C)(OC)C[C@@H](C)/C(=N\OCC#Cc2cccc(NC(=O)Cc3ccccn3)n2)[C@H](C)[C@H]2OC(=O)O[C@@]21C; 1 µg/mL
CC[C@H]1OC(=O)[C@H](C)[C@@H](OC(=O)Cc2ccccn2)[C@H](C)[C@@H](O[C@@H]2O[C@H](C)C[C@H](N(C)C)[C@H]2O)[C@](C)(OC)C[C@@H](C)/C(=N\OC/C=C/c2ccc(NC(=O)Cc3ccccn3)nc2)[C@H](C)[C@H]2OC(=O)O[C@@]21C; 2 µg/mL

Ask: Provide only the value of recorded MIC for CC[C@H]1OC(=O)[C@H](C)[C@@H](OC(=O)Cc2ccccn2)[C@H](C)[C@@H](O[C@@H]2O[C@H](C)C[C@H](N(C)C)[C@H]2O)[C@](C)(OC)C[C@@H](C)/C(=N\OCC#Cc2ccc([N+](=O)[O-])nc2)[C@H](C)[C@H]2OC(=O)O[C@@]21C
Reply: 1 µg/mL

Ask: Input CC[C@H]1OC(=O)[C@H](C)[C@@H](OC(=O)Cc2ccccn2)[C@H](C)[C@@H](O[C@@H]2O[C@H](C)C[C@H](N(C)C)[C@H]2O)[C@](C)(OC)C[C@@H](C)/C(=N\OCCCc2cncc(NC(=O)Cc3ccccn3)c2)[C@H](C)[C@H]2OC(=O)O[C@@]21C , output reported MIC.
Reply: 4 µg/mL

Ask: Return the recorded MIC value; entry: CC[C@H]1OC(=O)[C@H](C)[C@@H](OC(=O)Cc2ccccn2)[C@H](C)[C@@H](O[C@@H]2O[C@H](C)C[C@H](N(C)C)[C@H]2O)[C@](C)(OC)C[C@@H](C)/C(=N\OCC#Cc2cncc(NC(=O)Cc3ccccn3)c2)[C@H](C)[C@H]2OC(=O)O[C@@]21C
Reply: 1 µg/mL

Ask: State, in one line, measured MIC of CC[C@H]1OC(=O)[C@H](C)C(=O)[C@H](C)[C@@H](O[C@@H]2O[C@H](C)C[C@H](N(C)C)[C@H]2O)[C@](C)(OC)C[C@@H](C)C(=O)[C@H](C)[C@H]2N(CCCCn3cnc(-c4cccnc4)c3)C(=O)O[C@]12C
Reply: 0.062 µg/mL

Ask: State, in one line, measured MIC of CC[C@H]1OC(=O)[C@H](C)[C@@H](OC(=O)Cc2ccccn2)[C@H](C)[C@@H](O[C@@H]2O[C@H](C)C[C@H](N(C)C)[C@H]2O)[C@](C)(OC)C[C@@H](C)/C(=N\OC/C=C/c2ccc(N)nc2)[C@H](C)[C@H]2OC(=O)O[C@@]21C
Reply: 1 µg/mL

---

Tested on: Moraxella catarrhalis
experiment: Bactericidal activity against erythromycin-susceptible Moraxella catarrhalis 11B366 incubated for 20 hrs followed by sub-culturing for 24 hrs in absence of compound
Format: functional
Overview of reported MBC across a group of compounds:
Answer with a number only, understood to be in µg/mL.

CC[C@H]1OC(=O)[C@H](C)[C@@H](OC(=O)Cc2ccccn2)[C@H](C)[C@@H](O[C@@H]2O[C@H](C)C[C@H](N(C)C)[C@H]2O)[C@](C)(OC)C[C@@H](C)/C(=N\OCC#Cc2ccc3nccnc3c2)[C@H](C)[C@H]2OC(=O)O[C@@]21C; 2
CC[C@H]1OC(=O)[C@H](C)[C@@H](OC(=O)Cc2ccccn2)[C@H](C)[C@@H](O[C@@H]2O[C@H](C)C[C@H](N(C)C)[C@H]2O)[C@](C)(OC)C[C@@H](C)/C(=N\OCC#Cc2cnc(N)nc2)[C@H](C)[C@H]2OC(=O)O[C@@]21C; 4
CC[C@H]1OC(=O)[C@H](C)[C@@H](OC(=O)Cc2ccccn2)[C@H](C)[C@@H](O[C@@H]2O[C@H](C)C[C@H](N(C)C)[C@H]2O)[C@](C)(OC)C[C@@H](C)/C(=N\OCC#Cc2cccnc2)[C@H](C)[C@H]2OC(=O)O[C@@]21C; 4

Ask: For CC[C@H]1OC(=O)[C@H](C)[C@@H](OC(=O)Cc2ccccn2)[C@H](C)[C@@H](O[C@@H]2O[C@H](C)C[C@H](N(C)C)[C@H]2O)[C@](C)(OC)C[C@@H](C)/C(=N\OCC#Cc2cncc(C(N)=O)c2)[C@H](C)[C@H]2OC(=O)O[C@@]21C , write its MBC.
Reply: 2

Ask: Identify measured MBC corresponding to CC[C@H]1OC(=O)[C@H](C)C(=O)[C@H](C)[C@@H](O[C@@H]2O[C@H](C)C[C@H](N(C)C)[C@H]2O)[C@](C)(OC)C[C@@H](C)C(=O)[C@H](C)[C@H]2N(CCCCn3cnc(-c4cccnc4)c3)C(=O)O[C@]12C [TELITHROMYCIN]
Reply: 0.25

Ask: Specify measured MBC for CC[C@H]1OC(=O)[C@H](C)C(=O)[C@H](C)[C@@H](O[C@@H]2O[C@H](C)C[C@H](N(C)C)[C@H]2O)[C@](C)(OC)C[C@@H](C)/C(=N\OC/C=C/c2cnc3ccccc3c2)[C@H](C)[C@H]2OC(=O)O[C@@]21C .
Reply: 2

Ask: In one line, give reported MBC of the entry CC[C@H]1OC(=O)[C@H](C)[C@@H](OC(=O)Cc2ccccn2)[C@H](C)[C@@H](O[C@@H]2O[C@H](C)C[C@H](N(C)C)[C@H]2O)[C@](C)(OC)C[C@@H](C)/C(=N\OCC#Cc2cncc(N)c2)[C@H](C)[C@H]2OC(=O)O[C@@]21C .
Reply: 2

Ask: Name the recorded MBC of the item CC[C@H]1OC(=O)[C@H](C)[C@@H](OC(=O)Cc2ccccn2)[C@H](C)[C@@H](O[C@@H]2O[C@H](C)C[C@H](N(C)C)[C@H]2O)[C@](C)(OC)C[C@@H](C)/C(=N\OCC#Cc2ccc(-n3ccnc3)cc2)[C@H](C)[C@H]2OC(=O)O[C@@]21C in your answer.
Reply: 8

Ask: Give the reported MBC for this compound. CC[C@H]1OC(=O)[C@H](C)[C@@H](O[C@H]2C[C@@](C)(OC)[C@@H](O)[C@H](C)O2)[C@H](C)[C@@H](O[C@@H]2O[C@H](C)C[C@H](N(C)C)[C@H]2O)[C@](C)(OC)C[C@@H](C)C(=O)[C@H](C)[C@@H](O)[C@]1(C)O [CLARITHROMYCIN]
Reply: 0.25
